test system: Plasmodium berghei; test: Screen against P. berghei liver stage (PbLuc), transformed with Luciferase, at 10uM; type: functional, HepG2; conditions: tested at 10 uM
Hit rate of the full screen: of about 69,000 compounds, about 8,600 (12%) showed an effect of 50% or more. What follows is part of a selection rich in strong results, with near analogues and random picks from the rest.
Rule for this label: True means INHIBITION is less than 40%; False means INHIBITION is at least 40%.

In [3]: df
Out[3]:
                                    molecule  category
 0       Cc1nnnn1-c1cc(NCc2cccc(C#N)c2)ccc1F      True
 1  Cc1ccc(-c2ccccc2CC2CNCCNC2=O)c(C)c1 (configuration not stated)      True
 2  O=C(c1ccc(O)nc1)N1Cc2ccccc2OC2(CCOCC2)C1      True
 3  Cc1cc(F)ccc1-c1ccccc1CC1CNCCNC1=O (configuration not stated)     False
 4  O=C(Cc1cccc(O)c1)N1CCCC(OCc2cccnc2)C1 (configuration not stated)      True
 5  Cc1ccc(C(=O)N2Cc3ccccc3OC3(CCOCC3)C2)cn1     False
 6  Cc1noc(CCCC(=O)NC(C)c2ccc(Cl)s2)n1 (configuration not stated)      True
 7  Cc1cc(C(=O)N2Cc3ccccc3OC3(CCOCC3)C2)nc(N)n1     False
 8           O=c1[nH]cnc2[nH]c(N3CCOCC3)nc12      True
 9        N#Cc1ccc(N2CCC(OCCc3ccccc3)CC2)nc1     False
10     O=C(c1cncnc1)N1Cc2ccccc2OC2(CCOCC2)C1      True
